Kindly state Fa (fraction absorbed) for each of the entries shown.
# EXPERIMENTAL_PROTOCOL: PAMPA (parallel artificial membrane permeability assay)
# Type: in vitro ADME
# ASSAY_CONDITIONS: compounds at 500 µM, 5% DMSO in PBS pH 7.4, 10 hours, room temperature
// return numeric value only (unit: %, not printed)

Query: Fa (fraction absorbed) lookup needed for Cc1ncc(Cn2cc(CCOP(=O)(O)O)nn2)c(N)n1 , thanks.
Response: 2

Query: Fa (fraction absorbed) lookup needed for COC(=O)CCCCc1cn(Cc2cnc(C)nc2N)nn1 [15b] , thanks.
Response: 44

Query: Fa (fraction absorbed) lookup needed for Cc1ncc(Cn2cc(CCCC(C(=O)[O-])C(=O)[O-])nn2)c(N)n1.[K+].[K+] [14b] , thanks.
Response: 1

Query: Fa (fraction absorbed) lookup needed for Cc1ncc(Cn2cc(CCCC(=O)[O-])nn2)c(N)n1.[K+] [16a] , thanks.
Response: 3

Query: Fa (fraction absorbed) lookup needed for COC(=O)C(CCCc1cn(Cc2cnc(C)nc2N)nn1)C(=O)OC [13b] , thanks.
Response: 42

Query: Fa (fraction absorbed) lookup needed for COC(=O)CCCc1cn(Cc2cnc(C)nc2N)nn1 [15a] , thanks.
Response: 38

Query: Fa (fraction absorbed) lookup needed for COC(=O)C(CCc1cn(Cc2cnc(C)nc2N)nn1)C(=O)OC [13a] , thanks.
Response: 39

Query: Fa (fraction absorbed) lookup needed for Cc1ncc(Cn2cc(CCC(C(=O)[O-])C(=O)[O-])nn2)c(N)n1.[K+].[K+] [14a] , thanks.
Response: 2

Query: Fa (fraction absorbed) lookup needed for CCC(CC)COC(=O)[C@H](C)NP(=O)(OCCc1cn(Cc2cnc(C)nc2N)nn1)Oc1ccccc1 (stereo partly shown) , thanks.
Response: 48

Query: Fa (fraction absorbed) lookup needed for Cc1ncc(Cn2cc(CCCCC(=O)[O-])nn2)c(N)n1.[K+] [16b] , thanks.
Response: 2

====

# ASSAY_TARGET: UniProtKB P29804
# EXPERIMENTAL_PROTOCOL: Porcine PDH E1 inhibitory activity assay (DCPIP reduction)
# Type: biochemical
# ASSAY_CONDITIONS: [Compound] = 250 μM, [TPP] = 50 μM
# Description: Porcine PDH E1 was purchased from Sigma. Porcine PDH E1 activity was determined by monitoring 2,6-dichlorophenolindophenol (DCPIP) reduction at 600 nm using a microplate reader (CLARIOstar) and conducted as described[5] with some modifications. […] Specific activity was calculated using the molar extinction coefficient of DCPIP, 21 mM^–1 cm^–1.[28] The IC50 values were calculated from nonlinear regression curve fitting using GraphPad Prism. […]
Kindly state % Inhibition (5:1) for each of the entries shown.
// return numeric value only (unit: %, not printed)

Query: % Inhibition (5:1) lookup needed for Cc1ncc(Cn2cc(CCCC(=O)[O-])nn2)c(N)n1.[K+] [16a] , thanks.
Response: 75

Query: % Inhibition (5:1) lookup needed for COC(=O)C(CCCc1cn(Cc2cnc(C)nc2N)nn1)C(=O)OC [13b] , thanks.
Response: 81

Query: % Inhibition (5:1) lookup needed for COC(=O)CCCCc1cn(Cc2cnc(C)nc2N)nn1 [15b] , thanks.
Response: 71

Query: % Inhibition (5:1) lookup needed for Cc1ncc(Cn2cc(CCCCC(=O)[O-])nn2)c(N)n1.[K+] [16b] , thanks.
Response: 77

Query: % Inhibition (5:1) lookup needed for COC(=O)C(CCc1cn(Cc2cnc(C)nc2N)nn1)C(=O)OC [13a] , thanks.
Response: 71

Query: % Inhibition (5:1) lookup needed for COC(=O)CCCc1cn(Cc2cnc(C)nc2N)nn1 [15a] , thanks.
Response: 65

====

# ASSAY_TARGET: Porcine PDH E1 (Sus scrofa, UniProt P29804)
# Sequence (P29804 30-389): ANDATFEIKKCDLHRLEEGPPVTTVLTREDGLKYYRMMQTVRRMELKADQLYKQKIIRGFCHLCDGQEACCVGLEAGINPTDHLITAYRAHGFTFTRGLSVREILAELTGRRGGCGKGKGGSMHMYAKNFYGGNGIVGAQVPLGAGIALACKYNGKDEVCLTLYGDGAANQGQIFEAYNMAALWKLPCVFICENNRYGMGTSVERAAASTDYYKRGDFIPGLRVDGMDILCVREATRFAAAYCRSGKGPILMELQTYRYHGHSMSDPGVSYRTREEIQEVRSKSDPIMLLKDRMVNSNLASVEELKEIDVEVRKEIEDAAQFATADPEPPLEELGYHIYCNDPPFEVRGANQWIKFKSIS
# EXPERIMENTAL_PROTOCOL: Porcine PDH E1 inhibitory activity assay (DCPIP reduction)
# Format: biochemical
# ASSAY_CONDITIONS: [TPP] = 60 µM
# Procedure: Porcine PDH E1 was purchased from Sigma. Porcine PDH E1 activity was determined by monitoring 2,6-dichlorophenolindophenol (DCPIP) reduction at 600 nm using a microplate reader (CLARIOstar) and conducted as described[5] with some modifications. […] Specific activity was calculated using the molar extinction coefficient of DCPIP, 21 mM^–1 cm^–1.[28] The IC50 values were calculated from nonlinear regression curve fitting using GraphPad Prism. […]
ASSAY_ENDPOINT: vs TPP: affinity of the compound relative to that of TPP (= [TPP]/IC50)
The answer should be written as a number, with no unit following it.

Query: vs TPP: affinity of the compound relative to that of TPP (= [TPP]/IC50) lookup needed for COC(=O)C(CCCc1cn(Cc2cnc(C)nc2N)nn1)C(=O)OC [13b] , thanks.
Response: 0.88

Query: vs TPP: affinity of the compound relative to that of TPP (= [TPP]/IC50) lookup needed for Cc1ncc(Cn2cc(CCCC(=O)[O-])nn2)c(N)n1.[K+] [16a] , thanks.
Response: 0.54

Query: vs TPP: affinity of the compound relative to that of TPP (= [TPP]/IC50) lookup needed for COC(=O)CCCCc1cn(Cc2cnc(C)nc2N)nn1 [15b] , thanks.
Response: 0.48

====

Kindly state Ki for each of the entries shown.
# ASSAY_TARGET: A. viridans PO (Aerococcus viridans)
# Sequence (A9X9K8 entry or part of it): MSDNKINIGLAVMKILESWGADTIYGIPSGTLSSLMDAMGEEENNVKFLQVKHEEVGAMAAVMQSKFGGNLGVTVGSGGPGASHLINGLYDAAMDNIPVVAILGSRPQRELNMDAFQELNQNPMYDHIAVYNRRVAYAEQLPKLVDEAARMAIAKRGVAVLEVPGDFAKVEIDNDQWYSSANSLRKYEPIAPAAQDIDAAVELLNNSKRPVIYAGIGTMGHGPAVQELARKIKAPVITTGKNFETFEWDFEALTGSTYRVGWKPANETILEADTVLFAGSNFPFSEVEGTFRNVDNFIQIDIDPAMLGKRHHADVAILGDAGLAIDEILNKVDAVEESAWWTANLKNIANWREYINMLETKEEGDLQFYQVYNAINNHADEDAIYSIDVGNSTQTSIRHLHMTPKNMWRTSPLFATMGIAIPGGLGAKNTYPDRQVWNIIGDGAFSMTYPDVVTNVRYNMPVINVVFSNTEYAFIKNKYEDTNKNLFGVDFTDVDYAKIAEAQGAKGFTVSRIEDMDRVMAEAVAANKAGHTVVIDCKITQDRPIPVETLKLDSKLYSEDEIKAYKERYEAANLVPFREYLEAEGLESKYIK
# EXPERIMENTAL_PROTOCOL: A. viridans PO inhibitory activity assay (quinoneimine dye)
# Format: biochemical
# ASSAY_CONDITIONS: calculated from KM(TPP) 5 µM using [TPP]/IC50 = KM(TPP)/KI; read-out: KI
// return numeric value only (unit: µM, not printed)

Query: Ki lookup needed for COC(=O)C(CCc1cn(Cc2cnc(C)nc2N)nn1)C(=O)OC [13a] , thanks.
Response: 16

Query: Ki lookup needed for COC(=O)CCCCc1cn(Cc2cnc(C)nc2N)nn1 [15b] , thanks.
Response: 18

Query: Ki lookup needed for COC(=O)C(CCCc1cn(Cc2cnc(C)nc2N)nn1)C(=O)OC [13b] , thanks.
Response: 13

Query: Ki lookup needed for COC(=O)CCCc1cn(Cc2cnc(C)nc2N)nn1 [15a] , thanks.
Response: 23

====

Kindly state vs TPP: affinity of the compound relative to that of TPP (= [TPP]/IC50) for each of the entries shown.
# ASSAY_TARGET: S. cerevisiae PDC (Saccharomyces cerevisiae, UniProt P06169)
# Construct: purchased Sigma
# Sequence (P06169 2-563 limits assumed): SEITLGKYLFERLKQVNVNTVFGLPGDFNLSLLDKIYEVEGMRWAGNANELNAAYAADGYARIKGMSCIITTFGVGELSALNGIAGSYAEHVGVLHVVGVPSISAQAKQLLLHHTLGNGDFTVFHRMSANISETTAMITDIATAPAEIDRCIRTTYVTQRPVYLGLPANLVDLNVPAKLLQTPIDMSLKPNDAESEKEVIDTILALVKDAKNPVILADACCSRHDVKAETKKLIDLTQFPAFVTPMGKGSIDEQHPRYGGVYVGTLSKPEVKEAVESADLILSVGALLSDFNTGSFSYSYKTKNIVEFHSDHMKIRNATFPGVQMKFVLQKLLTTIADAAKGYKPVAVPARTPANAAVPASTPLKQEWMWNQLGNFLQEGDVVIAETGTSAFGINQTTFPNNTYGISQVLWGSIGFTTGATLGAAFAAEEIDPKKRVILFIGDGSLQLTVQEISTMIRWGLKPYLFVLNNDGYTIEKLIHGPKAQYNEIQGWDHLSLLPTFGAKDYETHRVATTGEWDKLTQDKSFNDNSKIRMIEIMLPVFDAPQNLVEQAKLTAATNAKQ
# EXPERIMENTAL_PROTOCOL: S. cerevisiae PDC inhibitory activity assay (DCPIP reduction)
# Format: biochemical
# ASSAY_CONDITIONS: [TPP] = 150 µM
The answer should be written as a number, with no unit following it.

Query: vs TPP: affinity of the compound relative to that of TPP (= [TPP]/IC50) lookup needed for COC(=O)C(CCc1cn(Cc2cnc(C)nc2N)nn1)C(=O)OC [13a] , thanks.
Response: 0.16

Query: vs TPP: affinity of the compound relative to that of TPP (= [TPP]/IC50) lookup needed for Cc1ncc(Cn2cc(CCCCC(=O)[O-])nn2)c(N)n1.[K+] [16b] , thanks.
Response: 0.30

Query: vs TPP: affinity of the compound relative to that of TPP (= [TPP]/IC50) lookup needed for Cc1ncc(Cn2cc(CCCC(=O)[O-])nn2)c(N)n1.[K+] [16a] , thanks.
Response: 0.26

Query: vs TPP: affinity of the compound relative to that of TPP (= [TPP]/IC50) lookup needed for COC(=O)CCCCc1cn(Cc2cnc(C)nc2N)nn1 [15b] , thanks.
Response: 0.19

Query: vs TPP: affinity of the compound relative to that of TPP (= [TPP]/IC50) lookup needed for COC(=O)CCCc1cn(Cc2cnc(C)nc2N)nn1 [15a] , thanks.
Response: 0.17

Query: vs TPP: affinity of the compound relative to that of TPP (= [TPP]/IC50) lookup needed for Cc1ncc(Cn2cc(CCC(C(=O)[O-])C(=O)[O-])nn2)c(N)n1.[K+].[K+] [14a] , thanks.
Response: 0.47

Query: vs TPP: affinity of the compound relative to that of TPP (= [TPP]/IC50) lookup needed for COC(=O)C(CCCc1cn(Cc2cnc(C)nc2N)nn1)C(=O)OC [13b] , thanks.
Response: 0.21

====

# ASSAY_TARGET: Porcine PDH E1 (Sus scrofa, UniProt P29804)
# EXPERIMENTAL_PROTOCOL: Porcine PDH E1 inhibitory activity assay (DCPIP reduction)
# Type: biochemical
# ASSAY_CONDITIONS: [TPP] = 60 µM
Kindly state vs TPP: affinity of the compound relative to that of TPP (= [TPP]/IC50) for each of the entries shown.
The answer should be written as a number, with no unit following it.

Query: vs TPP: affinity of the compound relative to that of TPP (= [TPP]/IC50) lookup needed for COC(=O)C(CCc1cn(Cc2cnc(C)nc2N)nn1)C(=O)OC [13a] , thanks.
Response: 0.53

Query: vs TPP: affinity of the compound relative to that of TPP (= [TPP]/IC50) lookup needed for COC(=O)CCCc1cn(Cc2cnc(C)nc2N)nn1 [15a] , thanks.
Response: 0.36

Query: vs TPP: affinity of the compound relative to that of TPP (= [TPP]/IC50) lookup needed for Cc1ncc(Cn2cc(CCCC(C(=O)[O-])C(=O)[O-])nn2)c(N)n1.[K+].[K+] [14b] , thanks.
Response: 2.4

Query: vs TPP: affinity of the compound relative to that of TPP (= [TPP]/IC50) lookup needed for Cc1ncc(Cn2cc(CCCCC(=O)[O-])nn2)c(N)n1.[K+] [16b] , thanks.
Response: 0.65

Query: vs TPP: affinity of the compound relative to that of TPP (= [TPP]/IC50) lookup needed for Cc1ncc(Cn2cc(CCC(C(=O)[O-])C(=O)[O-])nn2)c(N)n1.[K+].[K+] [14a] , thanks.
Response: 1.62
